Organism: Rattus norvegicus
assayProcedure: Open TG-GATES - Regimen: Daily Repeat
Format: toxicity, organism-based, Sprague-Dawley
Design: regimen Daily Repeat, gender Male, age 6 weeks
protocolConditions: in vivo, po, 100 mg/kg, […], tissue Plasma, route gavage, dose level Low, time 28 day
resultType: Na (meq/L)
# number only, unit meq/L dropped from output

{"compound": "CCOC(=O)CCC(=O)O[C@H]1[C@H](O[C@@H]2[C@@H](C)[C@H](O[C@H]3C[C@@](C)(OC)[C@@H](O)[C@H](C)O3)[C@@H](C)C(=O)O[C@H](CC)[C@@](C)(O)[C@H](O)[C@@H](C)C(=O)[C@H](C)C[C@@]2(C)O)O[C@H](C)C[C@@H]1N(C)C [ERYTHROMYCIN ETHYLSUCCINATE]", "unitsOfMeasure": "meq/L", "reported": 141.8}
{"compound": "COc1ccc2[nH]c([S+]([O-])Cc3ncc(C)c(OC)c3C)nc2c1 (stereo not given)", "unitsOfMeasure": "meq/L", "reported": 141.8}
{"compound": "COC1=CC(=O)C[C@@H](C)[C@]12Oc1c(Cl)c(OC)cc(OC)c1C2=O", "unitsOfMeasure": "meq/L", "reported": 141.4}
{"compound": "CCOc1ccc(NC(=O)CC(C)O)cc1 (stereo not given)", "unitsOfMeasure": "meq/L", "reported": 145.2}

In the following, a different compound is considered.
Returns the measured Na for the input compound. Input: NC(N)=Nc1nc(CSCCC(N)=NS(N)(=O)=O)cs1
140.8

====

Measured PT, listed per entry for reference.
Species on record: Rattus norvegicus
assayProcedure: Open TG-GATES - Regimen: Single
Assay type: toxicity, organism-based, Sprague-Dawley
Parameters: regimen Single, gender Male, age 6 weeks
protocolConditions: in vivo, po, 0 mg/kg, 3 h, tissue Blood, route gavage, dose level Control

// below: answered compounds
{"compound": "CC1=C(/C=C/C(C)=C/C=C/C(C)=C/CO)C(C)(C)CCC1", "reported": "15.8 s"}
{"compound": "COC1=CC(=O)C[C@@H](C)[C@]12Oc1c(Cl)c(OC)cc(OC)c1C2=O", "reported": "12.9 s"}

Returns the measured PT for the input compound. Input: CCOc1ccc(NC(=O)CC(C)O)cc1 (stereo not drawn)
13.6 s

Returns the measured PT for the input compound. Input: CCOC(=O)CCC(=O)O[C@H]1[C@H](O[C@@H]2[C@@H](C)[C@H](O[C@H]3C[C@@](C)(OC)[C@@H](O)[C@H](C)O3)[C@@H](C)C(=O)O[C@H](CC)[C@@](C)(O)[C@H](O)[C@@H](C)C(=O)[C@H](C)C[C@@]2(C)O)O[C@H](C)C[C@@H]1N(C)C [ERYTHROMYCIN ETHYLSUCCINATE]
16.3 s

Returns the measured PT for the input compound. Input: CN(C)CCN(Cc1cccs1)c1ccccn1
16.5 s

Returns the measured PT for the input compound. Input: COc1ccc2[nH]c([S+]([O-])Cc3ncc(C)c(OC)c3C)nc2c1 (stereo not drawn)
12.5 s

Returns the measured PT for the input compound. Input: NC(N)=Nc1nc(CSCCC(N)=NS(N)(=O)=O)cs1
12.5 s

Returns the measured PT for the input compound. Input: CCCNC(=O)NS(=O)(=O)c1ccc(Cl)cc1 [CHLORPROPAMIDE]
15.6 s

====

Measured Ca, listed per entry for reference.
Species on record: Rattus norvegicus
assayProcedure: Open TG-GATES - Regimen: Single
Assay type: toxicity, organism-based, Sprague-Dawley
Design: regimen Single, gender Male, age 6 weeks
protocolConditions: in vivo, po, 300 mg/kg, 24 h, tissue Plasma, route gavage, dose level Middle

Returns the measured Ca for the input compound. Input: CCOC(=O)CCC(=O)O[C@H]1[C@H](O[C@@H]2[C@@H](C)[C@H](O[C@H]3C[C@@](C)(OC)[C@@H](O)[C@H](C)O3)[C@@H](C)C(=O)O[C@H](CC)[C@@](C)(O)[C@H](O)[C@@H](C)C(=O)[C@H](C)C[C@@]2(C)O)O[C@H](C)C[C@@H]1N(C)C [ERYTHROMYCIN ETHYLSUCCINATE]
10.4 mg/dL

Returns the measured Ca for the input compound. Input: NC(N)=Nc1nc(CSCCC(N)=NS(N)(=O)=O)cs1
10.5 mg/dL

Returns the measured Ca for the input compound. Input: COc1ccc2[nH]c([S+]([O-])Cc3ncc(C)c(OC)c3C)nc2c1 (centres undefined)
10.3 mg/dL

Returns the measured Ca for the input compound. Input: COC1=CC(=O)C[C@@H](C)[C@]12Oc1c(Cl)c(OC)cc(OC)c1C2=O
10.9 mg/dL

====

Measured BUN, listed per entry for reference.
Species on record: Rattus norvegicus
assayProcedure: Open TG-GATES - Regimen: Daily Repeat
Assay type: toxicity, organism-based, Sprague-Dawley
Parameters: regimen Daily Repeat, gender Male, age 6 weeks
protocolConditions: in vivo, po, 1000 mg/kg, 72 h, tissue Plasma, route gavage, dose level High, time 3 day
# number only, unit mg/dL dropped from output

// below: answered compounds
{"compound": "NC(N)=Nc1nc(CSCCC(N)=NS(N)(=O)=O)cs1", "unitsOfMeasure": "mg/dL", "BUN": 15.4}
{"compound": "CCOc1ccc(NC(=O)CC(C)O)cc1 (stereo not given)", "unitsOfMeasure": "mg/dL", "BUN": 15.4}
{"compound": "CCOC(=O)CCC(=O)O[C@H]1[C@H](O[C@@H]2[C@@H](C)[C@H](O[C@H]3C[C@@](C)(OC)[C@@H](O)[C@H](C)O3)[C@@H](C)C(=O)O[C@H](CC)[C@@](C)(O)[C@H](O)[C@@H](C)C(=O)[C@H](C)C[C@@]2(C)O)O[C@H](C)C[C@@H]1N(C)C [ERYTHROMYCIN ETHYLSUCCINATE]", "unitsOfMeasure": "mg/dL", "BUN": 17}
{"compound": "COC1=CC(=O)C[C@@H](C)[C@]12Oc1c(Cl)c(OC)cc(OC)c1C2=O", "unitsOfMeasure": "mg/dL", "BUN": 13.8}

In the following, a different compound is considered.
Returns the measured BUN for the input compound. Input: COc1ccc2[nH]c([S+]([O-])Cc3ncc(C)c(OC)c3C)nc2c1 (stereo not given)
17.6

====

Measured DBIL, listed per entry for reference.
Species: Rattus norvegicus
assayProcedure: Open TG-GATES - Regimen: Daily Repeat
Format: toxicity, organism-based, Sprague-Dawley
Set-up: regimen Daily Repeat, gender Male, age 6 weeks
protocolConditions: in vivo, po, 100 mg/kg, 72 h, tissue Plasma, route gavage, dose level Low, time 3 day
Answer format reminder: number followed by unit.

{"compound": "CCOC(=O)CCC(=O)O[C@H]1[C@H](O[C@@H]2[C@@H](C)[C@H](O[C@H]3C[C@@](C)(OC)[C@@H](O)[C@H](C)O3)[C@@H](C)C(=O)O[C@H](CC)[C@@](C)(O)[C@H](O)[C@@H](C)C(=O)[C@H](C)C[C@@]2(C)O)O[C@H](C)C[C@@H]1N(C)C [ERYTHROMYCIN ETHYLSUCCINATE]", "DBIL": "0 mg/dL"}

Returns the measured DBIL for the input compound. Input: CCOc1ccc(NC(=O)CC(C)O)cc1 (stereo not given)
0.02 mg/dL

Returns the measured DBIL for the input compound. Input: NC(N)=Nc1nc(CSCCC(N)=NS(N)(=O)=O)cs1
0.086 mg/dL

Returns the measured DBIL for the input compound. Input: COC1=CC(=O)C[C@@H](C)[C@]12Oc1c(Cl)c(OC)cc(OC)c1C2=O
0.086 mg/dL

Returns the measured DBIL for the input compound. Input: COc1ccc2[nH]c([S+]([O-])Cc3ncc(C)c(OC)c3C)nc2c1 (stereo not given)
0.08 mg/dL

====

Measured CRE, listed per entry for reference.
Species: Rattus norvegicus
assayProcedure: Open TG-GATES - Regimen: Single
Assay type: toxicity, organism-based, Sprague-Dawley
Set-up: regimen Single, gender Male, age 6 weeks
protocolConditions: in vivo, po, 300 mg/kg, 24 h, tissue Plasma, route gavage, dose level Middle
# number only, unit mg/dL dropped from output

// below: answered compounds
{"compound": "CCOC(=O)CCC(=O)O[C@H]1[C@H](O[C@@H]2[C@@H](C)[C@H](O[C@H]3C[C@@](C)(OC)[C@@H](O)[C@H](C)O3)[C@@H](C)C(=O)O[C@H](CC)[C@@](C)(O)[C@H](O)[C@@H](C)C(=O)[C@H](C)C[C@@]2(C)O)O[C@H](C)C[C@@H]1N(C)C [ERYTHROMYCIN ETHYLSUCCINATE]", "unitsOfMeasure": "mg/dL", "CRE": 0.1}
{"compound": "NC(N)=Nc1nc(CSCCC(N)=NS(N)(=O)=O)cs1", "unitsOfMeasure": "mg/dL", "CRE": 0.4}
{"compound": "COC1=CC(=O)C[C@@H](C)[C@]12Oc1c(Cl)c(OC)cc(OC)c1C2=O", "unitsOfMeasure": "mg/dL", "CRE": 0.4}

In the following, a different compound is considered.
Returns the measured CRE for the input compound. Input: COc1ccc2[nH]c([S+]([O-])Cc3ncc(C)c(OC)c3C)nc2c1 (centres undefined)
0.4
